assay: in vitro; conditions: human, liver microsomes
Reported hepatic extraction ratio at 1 µM values for a set of molecules

C[S+]([O-])Cc1ccc(C(F)(F)F)cc1 (stereo not drawn) : 0.25
CC(=O)Nc1ccc(C(F)(F)F)cc1 : 0.39
CC(C)(C)NC(=O)Nc1ccc(C(F)(F)F)cc1 : < 0.23
C[S@](=O)(=Nc1ccc(C(F)(F)F)cc1)c1ccccc1 : < 0.23
CS(=N)(=O)c1ccc(C(F)(F)F)cc1 (stereo not drawn) : < 0.23
CNC(=O)c1ccc(C(F)(F)F)cc1 : < 0.23
O=S1(=Nc2ccccc2)CCCCC1 : < 0.23
N=S1(=Nc2ccc(C(F)(F)F)cc2)CCCCC1 : 0.25
N#Cc1ccc(N=S2(=O)CCCCC2)cc1 : < 0.23
O=S1(=Nc2cccnc2)CCCCC1 : 0.82

Lookup: Reported hepatic extraction ratio at 1 µM, molecule CS(C)(=O)=NC(=O)Nc1ccc(C(F)(F)F)cc1 : ____
Found: < 0.23

Lookup: Again, but for CN=S(=O)(c1ccc(C(F)(F)F)cc1)N(C)C (stereo not drawn)
Found: < 0.23

Lookup: Again, but for O=S1(=Nc2cc(C(F)(F)F)cc(C(F)(F)F)c2)CCCCC1
Found: 0.87

Data provenance: ChEMBL document CHEMBL3992492
